- TARGET_OR_SYSTEM: IDO (Homo sapiens, UniProt P14902)
- Sequence (P14902 whole entry): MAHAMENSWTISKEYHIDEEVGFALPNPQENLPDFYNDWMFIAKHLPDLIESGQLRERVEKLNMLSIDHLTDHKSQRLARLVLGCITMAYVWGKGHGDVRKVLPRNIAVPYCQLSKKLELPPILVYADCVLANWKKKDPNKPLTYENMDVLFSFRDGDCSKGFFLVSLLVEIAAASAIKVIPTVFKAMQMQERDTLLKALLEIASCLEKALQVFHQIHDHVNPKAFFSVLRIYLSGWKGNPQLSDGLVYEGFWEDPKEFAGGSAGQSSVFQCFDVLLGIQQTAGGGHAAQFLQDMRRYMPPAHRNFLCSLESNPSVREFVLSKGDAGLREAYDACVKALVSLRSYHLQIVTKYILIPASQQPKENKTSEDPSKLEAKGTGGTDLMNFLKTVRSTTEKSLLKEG
- TEST: hIDO biochemical coupled assay
- CONDITION_DESCRIPTION: 45 μM L-tryptophan, 17 minutes, room temperature; read-out: hIDO biochemical assay pIC50 (converted)
This section presents compounds with their documented IC50 values.

Please review the following examples before continuing.
| COMPOUND | IC50 |
| --- | --- |
| O=C1CCCN1C1CCN(c2cc(Cl)cc3[nH]ncc23)CC1 [Compound 372] | > 100 µM |
| OC1(c2ccccc2)CCN(c2cc(Cl)cc3[nH]ncc23)CC1 [Compound 207] | 3.24 to 31.6 µM |
| CN1C(=O)[C@@H]2CC[C@H]1CN(c1cc(Cl)cc3[nH]ncc13)C2 [Compound 435] | 3.24 to 31.6 µM |
| CNC(=O)CN1CCN(c2cc(Cl)cc3[nH]ncc23)CC1(C)C [Compound 413] | < 3.16 µM |
| CC(=O)N1CCC(c2cc(C3CCCC3)cc3[nH]ncc23)CC1 [Compound 217] | > 100 µM |
| O=C(NCc1ccccc1)c1cc(Cl)cc2[nH]ncc12 [Compound 237] | > 100 µM |
| CNC(=O)c1ccc(C2CCN(c3cc(Cl)cc4[nH]ncc34)CC2)cc1 [Compound 440] | 3.24 to 31.6 µM |
| O=C1CCC2(CCN(c3cc(Cl)cc4[nH]ncc34)CC2)N1 [Compound 215] | 3.24 to 31.6 µM |

Please find the next compound below.
Annotate the compound CS(=O)(=O)N1CCN(c2cc(C(F)(F)F)cc3[nH]ncc23)C2CCCCC21 (stereo not drawn) [Compound 340] with its measured IC50.
> 100 µM
